Overview of reported pEC50 across a group of molecules:
experimental.target: human APJ receptor (Homo sapiens, UniProt P35414)
Construct: expressed in transfected cells
assay.comment: Intracellular cAMP accumulation assay (APJ hcAMP, HTRF)
Format: cell-based
study.conditions: Table 3; HEK293 cells stably expressing human APJ receptor; read-out: APJ cAMP Human EC50
pEC50: −log10 of the molar value.
experimental.readout: pEC50

>>> result("CCCC(NC(=O)c1ccc(-c2c(Cl)cccc2-c2ncc(-c3c(F)ccc(F)c3F)[nH]2)c(C(=O)O)c1)c1ccccc1 (stereo not shown)")
"> 8.00"
>>> result("CCC[C@@H](NC(=O)c1ccc(-c2c(F)cccc2-c2nc3cc(OC)ccc3[nH]2)c(C(=O)O)c1)c1ccccc1")
"> 8.00"
>>> result("CCC[C@@H](NC(=O)c1ccc(-c2c(Cl)cccc2-c2nc3ccccc3[nH]2)c(-c2n[nH]c(=O)o2)c1)c1ccccc1")
"7.00 to 8.00"
>>> result("CCC[C@@H](NC(=O)c1ccc(-c2c(Cl)cccc2-c2nc3cc(O)ccc3[nH]2)c(C(=O)O)c1)c1ccccc1 (atropisomer, axis not shown) [Example 135]")
"7.00 to 8.00"
>>> result("COC[C@@H](NC(=O)c1ccc(-c2c(Cl)cccc2-c2nc3ccccc3[nH]2)c(C(=O)O)c1)c1ccccc1 (atropisomer, axis not shown) [Example 82]")
"7.00 to 8.00"
>>> result("COC(=O)CCNC(=O)c1ccc(-c2c(Cl)cccc2-c2nc3cc(F)c(OC)cc3[nH]2)c(C(=O)O)c1")
"7.00 to 8.00"
>>> result("COc1cc2[nH]c(-c3cccc(Cl)c3-c3ccc(C(=O)NC(C)C)cc3C(=O)O)nc2cc1F")
"7.00 to 8.00"
>>> result("CCC[C@@H](NC(=O)c1ccc(-c2c(Cl)cccc2-c2nc3cc(F)c(F)cc3[nH]2)c(C(=O)O)c1)c1ccccc1 (atropisomer, axis not shown)")
"> 8.00"
>>> result("COc1cc2[nH]c(-c3cccc(Cl)c3-c3ccc(C(=O)N4CCN(C)CC4)cc3C(=O)O)nc2cc1F")
"7.00 to 8.00"
>>> result("CCC[C@@H](NC(=O)c1ccc(-c2c(Cl)cccc2-c2ncc(-c3ccccc3)[nH]2)c(C(=O)O)c1)c1ccccc1 (atropisomer, axis not shown)")
"> 8.00"
>>> result("CCC[C@@H](NC(=O)c1ccc(-c2c(Cl)cccc2-c2nc3cc(OC)ccc3[nH]2)c(C(=O)O)c1)c1ccccc1 (atropisomer, axis not shown)")
"> 8.00"
>>> result("CCC[C@@H](NC(=O)c1ccc(-c2c(C)cccc2-c2nc3ccccc3n2C)c(C(=O)O)c1)c1ccccc1")
"7.00 to 8.00"
>>> result("CCCC(CCC)NC(=O)c1ccc(-c2c(Cl)cccc2-c2nc3ccccc3[nH]2)c(C(=O)O)c1")
"7.00 to 8.00"
>>> result("CCOCC(NC(=O)c1ccc(-c2c(Cl)cccc2-c2nc3ccccc3[nH]2)c(C(=O)O)c1)c1ccccc1 (stereo not shown)")
"> 8.00"
>>> result("COc1ccc(NC(=O)c2ccc(-c3c(Cl)cccc3-c3nc4cc(F)c(OC)cc4[nH]3)c(C(=O)O)c2)cc1")
"7.00 to 8.00"
>>> result("CCCC(NC(=O)c1ccc(-c2c(Cl)cccc2-c2nc3cc(OC)c(F)cc3[nH]2)c(C(=O)O)c1)c1ccccc1 (stereo not shown)")
"> 8.00"
>>> result("COc1cc2[nH]c(-c3cccc(Cl)c3-c3ccc(C(=O)NCCc4ccccc4)cc3C(=O)O)nc2cc1F")
"> 8.00"
>>> result("CCC[C@@H](NC(=O)c1ccc(-c2c(C)cccc2-c2nc3c(O)cccc3[nH]2)c(C(=O)O)c1)c1ccccc1")
"> 8.00"
>>> result("CCC[C@@H](NC(=O)c1ccc(-c2c(Cl)cccc2-c2nc3cc(O)ccc3[nH]2)c(C(=O)O)c1)c1ccccc1 (atropisomer, axis not shown) [Example 155]")
"> 8.00"
>>> result("COc1cc2[nH]c(-c3cccc(Cl)c3-c3ccc(C(=O)N4CCC(Cc5ccccc5)CC4)cc3C(=O)O)nc2cc1F")
"6.30 to 7.00"
>>> result("COc1cc2[nH]c(-c3cccc(Cl)c3-c3ccc(C(=O)NCC(C)C)cc3C(=O)O)nc2cc1F")
"7.00 to 8.00"
>>> result("CCC[C@@H](NC(=O)c1ccc(-c2c(C)cccc2-c2nc3cc(C(F)(F)F)ccc3[nH]2)c(C(=O)O)c1)c1ccccc1 (single isomer, unassigned) [Example 147]")
"6.30 to 7.00"
>>> result("COc1cc2[nH]c(-c3cccc(Cl)c3-c3ccc(C(=O)NCCCN(C)C)cc3C(=O)O)nc2cc1F")
"7.00 to 8.00"
>>> result("CCC[C@@H](NC(=O)c1ccc(-c2c(Cl)cccc2-c2nc3cc(O)c(F)cc3[nH]2)c(C(=O)O)c1)c1ccccc1 (atropisomer, axis not shown)")
"> 8.00"
>>> result("CCC[C@@H](NC(=O)c1ccc(-c2c(F)cccc2-c2nc3ccccc3[nH]2)c(C(=O)O)c1)c1ccccc1")
"> 8.00"

###

experimental.target: human APJ receptor (Homo sapiens, UniProt P35414)
Construct: expressed in transfected cells
assay.comment: Intracellular cAMP accumulation assay (APJ hcAMP, HTRF)
Format: cell-based
study.conditions: Table 1; HEK293 cells stably expressing human APJ receptor; inhibition of forskolin-mediated cAMP production; read-out: APJ hcAMP EC50
Overview of reported EC50 across a group of compounds:
experimental.readout: EC50

>>> result("CCC[C@@H](NC(=O)c1ccc(-c2cc(Cl)ccc2-c2nc3cc(C(F)(F)F)ccc3[nH]2)c(C(=O)O)c1)c1ccccc1 [Example 18]")
"< 0.01 µM"
>>> result("O=C(NC(CC1CCOCC1)c1ccccc1)c1ccc(-c2cc(Cl)ccc2-c2nc3ccccc3[nH]2)c(C(=O)O)c1 (stereo not drawn) [Example 217]")
"0.101 to 0.5 µM"
>>> result("CCCC(NC(=O)c1ccc(-c2c(Cl)cccc2-c2nc3ccccc3[nH]2)c(C(=O)O)c1)c1ccccn1 (stereo not drawn) [Example 180]")
"< 0.01 µM"
>>> result("COC[C@@H](NC(=O)c1ccc(-c2cc(Cl)ccc2-c2nc3ccccc3[nH]2)c(C(=O)O)c1)c1ccccc1 [Example 69]")
"< 0.01 µM"
>>> result("COc1cc2[nH]c(-c3cccc(Cl)c3-c3ccc(C(=O)N4CCN(C)CC4)cc3C(=O)O)nc2cc1F [Example 118]")
"0.01 to 0.1 µM"
>>> result("CCC[C@@H](NC(=O)c1ccc(-c2c(Cl)cccc2-c2nc3cc(OC)ccc3[nH]2)c(C(=O)O)c1)C1CCCCC1 (single isomer, unassigned) [Example 231]")
"< 0.01 µM"

###

experimental.target: human APJ receptor (Homo sapiens, UniProt P35414)
Construct: expressed in transfected cells
Sequence (P35414 1-380): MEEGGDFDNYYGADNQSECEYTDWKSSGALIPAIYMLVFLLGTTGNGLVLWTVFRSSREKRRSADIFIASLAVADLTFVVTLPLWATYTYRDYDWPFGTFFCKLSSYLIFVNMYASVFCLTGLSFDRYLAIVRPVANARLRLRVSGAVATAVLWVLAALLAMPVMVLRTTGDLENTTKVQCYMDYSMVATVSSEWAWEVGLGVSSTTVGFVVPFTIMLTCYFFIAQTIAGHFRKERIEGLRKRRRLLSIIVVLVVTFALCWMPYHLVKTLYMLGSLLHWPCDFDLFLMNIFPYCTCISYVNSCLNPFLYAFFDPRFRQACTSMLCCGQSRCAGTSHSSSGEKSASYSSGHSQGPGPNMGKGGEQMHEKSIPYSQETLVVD
assay.comment: Intracellular cAMP accumulation assay (APJ hcAMP, HTRF)
Format: cell-based
study.conditions: Table 1; HEK293 cells stably expressing human APJ receptor; inhibition of forskolin-mediated cAMP production; read-out: APJ hcAMP EC50
pEC50: −log10 of the molar value.
Overview of reported pEC50 across a group of molecules:
experimental.readout: pEC50

>>> result("CCC[C@@H](NC(=O)c1ccc(-c2c(Cl)cccc2-c2ncc(-c3ccc(OC)cc3)[nH]2)c(C(=O)O)c1)c1ccccc1 (atropisomer, axis not shown) [Example 105]")
"> 8.00"
>>> result("CCCC(NC(=O)c1ccc(-c2cc(Cl)ccc2-c2nc3ccccc3[nH]2)c(C(=O)O)c1)c1ccccc1OC (stereo not drawn) [Example 208]")
"> 8.00"
>>> result("CCCC(NC(=O)c1ccc(-c2c(Cl)cccc2-c2nc3ccccc3[nH]2)c(C(=O)O)c1)C1CCCC1 (single isomer, unassigned) [Example 183]")
"> 8.00"
>>> result("CCCC(NC(=O)c1ccc(-c2c(Cl)cccc2-c2nc3ccccc3[nH]2)c(C(=O)O)c1)c1ccccc1Cl (single isomer, unassigned) [Example 169]")
"> 8.00"
>>> result("CCC[C@@H](NC(=O)c1ccc(-c2ccccc2-c2nc3cc(OC)ccc3[nH]2)c(C(=O)O)c1)c1ccccc1 [Example 58]")
"> 8.00"
>>> result("COc1ccc(NC(=O)c2ccc(-c3c(Cl)cccc3-c3nc4cc(F)c(OC)cc4[nH]3)c(C(=O)O)c2)cc1 [Example 125]")
"7.00 to 8.00"
